system: PRKG1; details: concentration: 1 μM, replicates: in singlicate; n = 1;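 note: KINOMEscan kinase panel screen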
endpoint: %Inh (%)
I only need the number, in %, no unit after it.

Field: example entries. Status: answers known.
* Cl.N#CCc1ccc(Nc2nccc(Nc3ccc(Oc4ccccc4)cc3)n2)cc1 | 0
* CN(C)c1ncnc2nc[nH]c12 | 19
* CCNC(=O)/C=C/c1n[nH]c2cc(Sc3ccccc3C(=O)NC)ccc12 | 14
* CN1CCN(Cc2ccc(NC(=O)Nc3ccc(N(C)c4ccnc(Nc5ccc(CS(C)(=O)=O)cc5)n4)cc3)cc2)CC1.Cl | 0

molecule Cc1ccccc1CC(=O)N1CCc2cc(-c3cn(C)c4ncnc(N)c34)ccc21 , %Inh observed: 0

###

system: ALK; details: concentration: 1 μM, replicates: in singlicate; n = 1
Assign labels as follows, please: Y for %Inh below 20%; N for %Inh equal to or exceeding 20%.

* Cl.Cl.NCC(NC(=O)c1cc(-c2cccnc2)c(-c2ccnc3[nH]ccc23)s1)c1ccccc1 (centres unmarked) | N

Hello, I'm reviewing records and need to know if %Inh of O=C(Nc1c(F)cccc1F)c1cc(C(=O)c2ccccc2F)c[nH]1 is below 20%. Could you check?
N

Does the reported %Inh of the following molecule sit strictly below 20%? COc1cccc(C2=C(Nc3cccc(O)c3)C(=O)NC2=O)c1
Y

Confirm or reject: %Inh of Cc1cc(-c2ccnc(Nc3cccc(C#N)c3)n2)cc(C)c1O lies strictly below 20%
Y

Bench note: check whether COC(=O)Nc1nc2cc(Oc3ccc(NC(=O)Nc4cccc(SC)c4)cc3)ccc2[nH]1.Cl shows %Inh below 20%
N

Below 20% on %Inh? Entry Cc1ccc(O)cc1Nc1ccnc2cc(-c3ccc(CN4CCCCC4)o3)ccc12
Y

hey, is %Inh for Fc1cc(Cl)ccc1Nc1ccnc2cc(-c3ccc(CN4CCSCC4)o3)ccc12 lower than 20% or not?
N

Take the molecule NCCC(NC(=O)c1cc(Br)c(-c2ccnc3[nH]ccc23)s1)c1ccccc1.O=C(O)C(F)(F)F.O=C(O)C(F)(F)F (centres unmarked) and say whether its %Inh is less than 20%.
N

###

Parameter: %Inh. Scope: all listed entries.
system: CDC2L5; construct: gene CDK13; details: concentration: 1 μM, replicates: in singlicate; n = 1
Supply the numeric figure in %, leaving out any unit text.

* O=C(Nc1c(F)cccc1F)c1cc(C(=O)c2ccccc2F)c[nH]1 | 0
* CCn1c(-c2nonc2N)nc2c(-c3ccccc3)ncc(OCCCN)c21.O=C(O)C(F)(F)F.O=C(O)C(F)(F)F | 0
* CCn1cnc2c(NCc3ccccc3)ncnc21 | 10
* COC(=O)Nc1nc2ccc(Oc3ccc(CC(=O)Nc4cc(C(F)(F)F)ccc4F)cc3)cc2[nH]1 | 0
* Cc1cccc(Nc2nc(N[C@H]3CCCC[C@H]3N)ncc2C(N)=O)c1.Cl | 0

Now look at this entry.
So for CN1CCN(Cc2ccc(NC(=O)Nc3ccc(N(C)c4ccnc(Nc5ccc(CS(C)(=O)=O)cc5)n4)cc3)cc2)CC1.Cl , the logged %Inh turned out to be 99.8

###

Each entry below lists one item and its recorded %Inh value.
system: CDKL2; settings: concentration: 1 μM, replicates: in singlicate; n = 1
Your answer should be a plain number; it is taken to be in %.

- Nc1ncc(-c2cn[nH]c2)c2scc(-c3ccc4c(c3)CCN4C(=O)Cc3ccccc3)c12 [GSK2593067]: 28
- COc1cccc(-c2nc(-c3ccccc3)[nH]c2-c2ccncc2)c1 [SB-610250]: 23
- COC(=O)Nc1nc2cc(Oc3ccc(NC(=O)Nc4cccc(SC)c4)cc3)ccc2[nH]1.Cl [GW697999]: 86
- Nc1ncc(-c2ccc3nccc(-c4ccncc4)c3c2)cc1S(=O)(=O)N1CCCCC1 [GSK1693850]: 27
- CN(c1ccc2c(c1)nc(NCc1ccccc1)n2C)c1ccnc(Nc2ccc(CS(C)(=O)=O)cc2)n1.Cl [GW811603]: 0
- CCNc1nccc(-c2c(-c3ccc(F)cc3)ncn2C2CCN(C)CC2)n1: 0
- Fc1cc(Cl)ccc1Nc1ccnc2cc(-c3ccc(CN4CCSCC4)o3)ccc12 [GW560106]: 8

Next item in the queue.
Bench note, CDKL2: entry CC(C)c1nc(-c2cccc(NS(=O)(=O)c3c(F)cccc3F)c2)c(-c2ccnc(Nc3ccc(N4CCOCC4)nc3)n2)s1.Cl [GSK1723980] , its %Inh = 98.9

###

Parameter: %Inh. Scope: all listed entries.
system: BRAF; details: concentration: 1 μM, replicates: in singlicate; n = 1
Give the number; % is assumed, so skip it.

Some solved entries appear below for comparison.
- Cl.Cl.NC(CNC(=O)c1cc(Br)c(-c2ccnc3[nH]ccc23)s1)c1ccccc1 (stereo not shown) [GSK1322949]: 0
- CN(c1ccc(F)c(NC(=O)c2cccc(OC(C)(C)C#N)c2Cl)c1)c1ccc2nc(NC(=O)C3CC3)sc2n1: 94
- COc1cccc(CC(=O)N2CCc3cc(-c4cn(C)c5ncnc(N)c45)ccc32)c1 [GSK2608899]: 6

Could you now look at the following molecule, please?
Measured %Inh, O=C(Nc1n[nH]c2nc(-c3ccccc3)ccc12)C1CC1 [SB-708999] : 4

###

test system: ERK3; construct: gene MAPK6; settings: concentration: 1 μM, replicates: in singlicate; n = 1
endpoint: %Inh (%)
Numeric only. Scale: %

Use the examples below as a reference point.
- COc1cc(Nc2nccc(N3CCC(NS(=O)(=O)c4ccc(NC(C)=O)cc4)CC3)n2)cc(OC)c1OC: 83
- Cl.O=C(Nc1ccc(Oc2ccc3[nH]c(NC(=O)c4ccco4)nc3c2)cc1)Nc1cc(C(F)(F)F)ccc1F: 0
- CN(c1ccc(NC(=O)Nc2cccc(Cl)c2)cc1)c1ccnc(N)n1.Cl: 0
- COc1cc(Nc2nccc(N3CCC(NC(=O)Nc4ccc5c(c4)OCO5)C3)n2)cc(OC)c1OC (stereo not shown): 0
- Nc1ncc(-c2ccc3nccc(-c4ccncc4)c3c2)cc1S(=O)(=O)N1CCCCC1: 0

Measured %Inh, COc1ccc(C2=C(Nc3cccc(O)c3)C(=O)NC2=O)cc1 : 6

Notebook: COc1cccc2c(-c3ccncc3)c(-c3ccc(F)cc3)nn12 , %Inh read as 0

Lab note: CC(C)c1nc(-c2ccc(F)c(NS(=O)(=O)c3c(F)cccc3F)c2)c(-c2ccnc(Nc3ccc(N4CCOCC4)nc3)n2)s1 gave %Inh of 1

Kindly note the recorded %Inh for O=C(Nc1n[nH]c2cc(-c3cccs3)ccc12)C1CC1 , which is 0

Query Cl.Cl.NCC(NC(=O)c1cc(-c2cccnc2)c(-c2ccnc3[nH]ccc23)s1)c1ccccc1 (stereo not shown) yields %Inh of 3

###

tested on: HUNK; details: concentration: 1 μM, replicates: in singlicate; n = 1
Quick list: %Inh per entry.
API: value field is a number in %; no unit string.

Field %Inh (entry CC(C)NCC(Cc1ccccc1)NC(=O)c1cc(Br)c(-c2ccnc3[nH]ccc23)s1.Cl.Cl (stereo not drawn) [GSK1383281] ) reads 0

In plain terms, Cc1ccc(O)cc1Nc1ccnc2ccc(C(C)(C)C)cc12 [GW856805] has a documented %Inh of 0

For NCCC(NC(=O)c1cc(Br)c(-c2ccnc3[nH]ccc23)s1)c1ccccc1.O=C(O)C(F)(F)F.O=C(O)C(F)(F)F (stereo not drawn) [GSK1307810] the molecule record lists %Inh as 0

###

system: DMPK2; construct: gene CDC42BPG; settings: concentration: 1 μM, replicates: in singlicate; n = 1
endpoint: %Inh (%)
The reply should be a number in %, with the unit left off.

Known results for compounds:
• Cl.Cl.NC(CNC(=O)c1cc(Br)c(-c2ccnc3[nH]ccc23)s1)c1ccccc1 (stereo not shown) = 59
• O=C(Nc1c(F)cccc1F)c1cc(C(=O)c2ccccc2F)c[nH]1 = 0
• COC(=O)Nc1nc2cc(Oc3ccc(NC(=O)Nc4cccc(SC)c4)cc3)ccc2[nH]1.Cl = 0

Proceed to the following item.
Summary for this compound, O=C(O)C(F)(F)F.O=c1[nH]ccc2nc(N[C@@H]3CCNC3)nc(Nc3cc(Cl)cc(Cl)c3)c12 : %Inh is 41

###

tested on: CSK; conditions: concentration: 1 μM, replicates: in singlicate; n = 1
endpoint: %Inh (%)
Numeric only. Scale: %

Documented %Inh of COc1ccc(C)c(Nc2ccnc(Nc3ccc(-c4cnc[nH]4)cc3)n2)c1.Cl [GW784041] : 9

%Inh in this record for CN(C)c1ncnc2nc[nH]c12 [SKF-31736] : 0

%Inh reported for this compound O=C(Nc1n[nH]c2nc(-c3ccccc3O)ccc12)C1CC1 [SB-711880] : 0

Record summary for COC(=O)Nc1nc2ccc(Oc3ccc(CC(=O)Nc4cc(C(F)(F)F)ccc4F)cc3)cc2[nH]1 [GW680903] : reported %Inh = 0

GET /value?item= COc1cc(Nc2ccnc3cc(-c4ccncc4)ccc23)cc(OC)c1OC.Cl [GW494610] &field=%Inh returns 79

%Inh measured on N#Cc1cnc2cc(-c3cnc(CNCCN4CCOCC4)s3)ccc2c1Nc1ccc(Oc2ccccc2)cc1 [GW664114] = 96.7

response.value for Nc1ncnc2scc(-c3ccc(NC(=O)Cc4cc(F)ccc4F)cc3)c12.O=C(O)C(F)(F)F [SB-731254-M] (field: %Inh) = 9

According to the records, this compound Cc1cc(-c2ccnc(Nc3cccc(C#N)c3)n2)cc(C)c1O [GSK1440913] displays %Inh of 0

Field %Inh (entry COc1cccc(CC(=O)N2CCc3cc(-c4cn(C)c5ncnc(N)c45)ccc32)c1 [GSK2608899] ) reads 14
